# measurement notes: Conjugation of anti-CD98 mAbs with Bcl-xL inhibitor synthons (precipitation, DAR, recovery, aggregation)
# condition set: conjugation with synthon TX, Method E
Quick reference for % Aggregates by SEC among some molecules
In your response, the unit should come after the numeric value.

huAb103: "heavy chain variable sequence of huAb103 is provided in SEQ ID NO: 109"; "light chain variable sequence ... in SEQ ID NO: 107" (antibody, V domains shown) VH: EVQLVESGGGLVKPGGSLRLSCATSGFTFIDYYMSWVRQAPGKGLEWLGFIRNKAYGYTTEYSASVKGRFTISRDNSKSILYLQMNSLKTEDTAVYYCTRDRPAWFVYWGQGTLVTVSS VL: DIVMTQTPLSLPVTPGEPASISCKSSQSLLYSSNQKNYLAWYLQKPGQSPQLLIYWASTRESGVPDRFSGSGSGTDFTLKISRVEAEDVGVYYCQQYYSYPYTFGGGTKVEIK = 0.9%

Next up:
Lookup: Which % Aggregates by SEC value belongs to huAb105: "heavy chain variable sequence of huAb105 is provided in SEQ ID NO: 111"; "light chain variable sequence ... in SEQ ID NO: 112" (antibody, V domains shown) VH: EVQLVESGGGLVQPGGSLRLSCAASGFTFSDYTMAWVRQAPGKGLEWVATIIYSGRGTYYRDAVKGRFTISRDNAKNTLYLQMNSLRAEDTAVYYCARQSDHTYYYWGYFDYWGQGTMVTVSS VL: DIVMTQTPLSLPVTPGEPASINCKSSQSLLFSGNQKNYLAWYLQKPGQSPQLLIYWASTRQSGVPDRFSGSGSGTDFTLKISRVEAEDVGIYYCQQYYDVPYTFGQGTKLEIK ?
Found: 0.6%
